# Target Or System: Wild-type cruzipain (Trypanosoma cruzi, UniProt P25779)
# Sequence (P25779 whole entry): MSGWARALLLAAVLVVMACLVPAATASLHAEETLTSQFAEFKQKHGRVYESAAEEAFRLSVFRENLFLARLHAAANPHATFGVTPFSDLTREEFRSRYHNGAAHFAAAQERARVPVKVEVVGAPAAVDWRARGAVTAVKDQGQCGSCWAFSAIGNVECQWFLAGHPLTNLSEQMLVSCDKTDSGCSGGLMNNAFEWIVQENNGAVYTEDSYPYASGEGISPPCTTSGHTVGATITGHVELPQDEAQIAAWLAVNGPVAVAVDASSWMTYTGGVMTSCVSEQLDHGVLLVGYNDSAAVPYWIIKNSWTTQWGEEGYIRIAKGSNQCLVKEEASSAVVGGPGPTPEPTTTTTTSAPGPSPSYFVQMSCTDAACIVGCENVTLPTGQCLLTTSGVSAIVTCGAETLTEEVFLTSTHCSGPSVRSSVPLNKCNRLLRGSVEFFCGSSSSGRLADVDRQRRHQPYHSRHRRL
# Method Notes: Trypanosoma cruzi cruzipain peptidase activity assay (Ki)
# Assay type: biochemical
# Condition Set: read-out: Ki, inhibitors of cruzain and cruzipains
pKi: −log10 of the molar value.
For each record, write down the corresponding pKi.

Here are 2 compounds together with their reported answers.
> print(dat)
                               smiles.entry                          target.or.system  outcome.measure  recorded.result
1  O=C(N[C@@H](Cc1ccc(O)cc1)C(=O)N1CC[C@@H]2[C@H]1C(=O)CN2C(=O)c1ccccc1)c1cccc(F)c1  Wild-type cruzipain (Trypanosoma cruzi, UniProt P25779)              pKi           > 5.30
2  CC[C@H](N)C(=O)N1CC(=O)[C@@H]2[C@H]1CCN2C(=O)[C@H](CC(C)C)NC(=O)c1ccc(N(C)C)cc1  Wild-type cruzipain (Trypanosoma cruzi, UniProt P25779)              pKi           > 5.30

Shift focus to the following entry.
Field request: pKi | item: CC(C)C[C@H](NC(=O)c1ccc(N(C)C)cc1)C(=O)N1CC[C@@H]2[C@H]1C(=O)CN2C(=O)c1ccc(Cl)cc1
> 5.30

* * *

# Target Or System: human cathepsin L (Homo sapiens, UniProt P07711)
# Construct: purchased CN Biosciences
# Sequence (P07711 114-333): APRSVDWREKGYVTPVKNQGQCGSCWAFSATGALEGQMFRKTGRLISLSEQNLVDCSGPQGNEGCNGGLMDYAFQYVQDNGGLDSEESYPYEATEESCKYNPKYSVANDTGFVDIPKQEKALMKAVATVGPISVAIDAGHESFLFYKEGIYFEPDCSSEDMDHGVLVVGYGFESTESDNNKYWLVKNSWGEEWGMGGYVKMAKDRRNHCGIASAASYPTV
# Method Notes: Cathepsin L peptidase activity assay (Ki)
# Assay type: biochemical
# Condition Set: read-out: Ki, inhibitors of cathepsin L
Outcome Measure: Ki

Recorded results for 2 compounds are shown here.
> print(dat)
                               smiles.entry                          target.or.system  outcome.measure  recorded.result
1  O=C1CN(C(=O)c2ccccc2)[C@@H]2CCN(C(=O)[C@H](CC3CCCCC3)NC(=O)N3CCOCC3)[C@H]12  human cathepsin L (Homo sapiens, UniProt P07711)               Ki           < 5 µM
2  O=C(N[C@@H](CC1CCCCC1)C(=O)N1CC[C@@H]2[C@H]1C(=O)CN2C(=O)c1ccccc1)c1ccccc1  human cathepsin L (Homo sapiens, UniProt P07711)               Ki           < 5 µM

# next compound below
Quick one: Ki for CN(C)c1ccc(C(=O)N[C@@H](Cc2ccc(O)cc2)C(=O)N2CC[C@@H]3[C@H]2C(=O)CN3C(=O)c2ccccc2S(C)(=O)=O)cc1 ?
< 5 µM

* * *

# Target Or System: Bovine cathepsin S (Bos taurus, UniProt P25326)
# Construct: purchased CN Biosciences
# Sequence (P25326 115-331): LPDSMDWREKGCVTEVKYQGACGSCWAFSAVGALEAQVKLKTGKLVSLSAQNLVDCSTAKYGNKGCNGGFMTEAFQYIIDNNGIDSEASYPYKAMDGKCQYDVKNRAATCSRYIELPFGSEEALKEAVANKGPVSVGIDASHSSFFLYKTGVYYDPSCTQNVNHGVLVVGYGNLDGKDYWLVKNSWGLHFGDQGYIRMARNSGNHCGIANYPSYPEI
# Method Notes: Cathepsin S peptidase activity assay, bovine enzyme (Ki)
# Assay type: biochemical
# Condition Set: Table 5; read-out: Ki Bovine Cathepsin S
So I've got a bunch of compounds here, and I need their Ki values.

For every record below, what is its Ki?
1. O=C(N[C@@H](Cc1ccc(O)cc1)C(=O)N1CC[C@@H]2[C@H]1C(=O)CN2C(=O)c1ccccc1)c1cccc2ccccc12 [Example 296]
2. CC(C)(C)c1ccc(C(=O)N[C@@H](Cc2ccc(O)cc2)C(=O)N2CC[C@@H]3[C@H]2C(=O)CN3C(=O)c2ccccc2)cc1 [Example 346]
3. CC(C)C[C@H](NC(=O)c1ccc(-c2cccs2)cc1)C(=O)N1CC[C@@H]2[C@H]1C(=O)CN2C(=O)c1ccccc1 [Example 2]
4. O=C(N[C@@H](CC1CCCCC1)C(=O)N1CC[C@@H]2[C@H]1C(=O)CN2C(=O)c1ccccc1)c1ccsc1 [Example 250]

> 5 µM
> 10 µM
> 1 µM
< 0.1 µM

Values from patent US20060100431A1
